# test-target: Potassium channel subfamily K member 9 (Homo sapiens, UniProt Q9NPC2)
# Sequence (Q9NPC2 whole entry): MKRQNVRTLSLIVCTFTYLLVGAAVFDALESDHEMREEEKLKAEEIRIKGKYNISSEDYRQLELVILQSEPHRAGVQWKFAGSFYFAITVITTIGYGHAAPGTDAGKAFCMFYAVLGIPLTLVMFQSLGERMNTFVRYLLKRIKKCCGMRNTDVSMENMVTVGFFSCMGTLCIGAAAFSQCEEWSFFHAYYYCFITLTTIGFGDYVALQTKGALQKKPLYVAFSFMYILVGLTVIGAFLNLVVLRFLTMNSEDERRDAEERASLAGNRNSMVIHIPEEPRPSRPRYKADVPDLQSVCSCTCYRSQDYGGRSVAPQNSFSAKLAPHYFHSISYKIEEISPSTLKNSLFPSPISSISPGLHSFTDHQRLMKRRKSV
# assay-summary: Inhibition of human TASK3 expressed in HEK293 cells by Ti+ flux assay
# Assay type: cell-based
Provide the reported IC50 of each item.
Please state the figure in µM; there is no need to write the unit.

input: State IC50 on Potassium channel subfamily K member 9 (Homo sapiens, UniProt Q9NPC2). Entry: CN1CCN(C2Cc3ccccc3Sc3ccc(Cl)cc32)CC1 (racemic)
output: 73.8

input: State IC50 on Potassium channel subfamily K member 9 (Homo sapiens, UniProt Q9NPC2). Entry: CN(C)c1cc2c(Nc3ccc4c(cnn4Cc4ccccc4)c3)ncnc2cn1 [GW282974X]
output: 50.1

input: State IC50 on Potassium channel subfamily K member 9 (Homo sapiens, UniProt Q9NPC2). Entry: CC[C@@H]1/C=C/C=C/C[C@H](C)[C@@H](O)[C@](C)(O)C(=O)[C@H](C)[C@@H](O)[C@H](C)C(=O)[C@H](C)[C@@H](O)[C@H](C)/C=C/C(=O)O[C@H]2[C@@H](C)[C@@H](CC1)O[C@@]1(CC[C@@H](C)[C@@H](C[C@H](C)O)O1)[C@@H]2C
output: 47.7

input: State IC50 on Potassium channel subfamily K member 9 (Homo sapiens, UniProt Q9NPC2). Entry: Ic1ccccc1CN[C@@H]1C2CCN(CC2)[C@@H]1C(c1ccccc1)c1ccccc1
output: 45.5

input: State IC50 on Potassium channel subfamily K member 9 (Homo sapiens, UniProt Q9NPC2). Entry: CC[C@H](C)C(=O)O[C@H]1CCC=C2C=C[C@H](C)[C@H](CC[C@@H]3C[C@@H](O)CC(=O)O3)[C@H]21
output: 159

====

# test-target: Potassium channel subfamily K member 17 (Homo sapiens, UniProt Q96T54)
# Sequence (Q96T54 whole entry): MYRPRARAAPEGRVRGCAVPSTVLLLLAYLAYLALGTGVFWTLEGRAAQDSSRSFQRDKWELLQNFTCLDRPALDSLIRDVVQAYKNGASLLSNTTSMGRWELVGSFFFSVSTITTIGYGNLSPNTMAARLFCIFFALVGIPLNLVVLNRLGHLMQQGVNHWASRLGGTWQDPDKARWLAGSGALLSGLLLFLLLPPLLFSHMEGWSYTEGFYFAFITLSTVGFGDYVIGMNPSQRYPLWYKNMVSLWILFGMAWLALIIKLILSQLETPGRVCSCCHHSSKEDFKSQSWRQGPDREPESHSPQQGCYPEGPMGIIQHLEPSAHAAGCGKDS
# assay-summary: Inhibition of human TASK4 expressed in CHO cells by Inside-out macro-patches based electrophysiology assay
value-kind: IC50 (µM)
Please state the figure in µM; there is no need to write the unit.

input: Check the records and state IC50 for COc1ccc(CC(=O)NCc2ccccc2-c2ccccc2C(=O)NCc2ccc(F)cc2F)cc1
output: 8.1

====

# test-target: Potassium channel subfamily K member 3 (Homo sapiens)
# assay-summary: Inhibition of human TASK1 by whole cell voltage clamp assay
Provide the reported pIC50 of each item.
# pIC50 is unitless: minus log10 of the molar concentration; print number only

input: Check the records and state pIC50 for CC(C1CC2CCC1C2)n1c(S)nnc1-c1ccco1 (configuration not stated)
output: 5.49

input: Check the records and state pIC50 for CCCCS(=O)(=O)Nc1ccccc1C(=O)NC(CC)c1ccc(OC)nc1 (configuration not stated)
output: 6.66

====

# test-target: Potassium channel subfamily K member 9 (Homo sapiens, UniProt Q9NPC2)
# assay-summary: Inhibition of human TASK3 expressed in Xenopus oocytes by whole cell voltage clamp assay
# Assay type: cell-based
value-kind: IC50 (µM)
Please state the figure in µM; there is no need to write the unit.

input: State IC50 on Potassium channel subfamily K member 9 (Homo sapiens, UniProt Q9NPC2). Entry: CCCCS(=O)(=O)Nc1ccccc1C(=O)NC(CC)c1ccc(OC)nc1 (centres undefined)
output: 0.95

input: State IC50 on Potassium channel subfamily K member 9 (Homo sapiens, UniProt Q9NPC2). Entry: COc1ccc(CC(=O)NCc2ccccc2-c2ccccc2C(=O)NCc2ccc(F)cc2F)cc1
output: 0.318

input: State IC50 on Potassium channel subfamily K member 9 (Homo sapiens, UniProt Q9NPC2). Entry: COc1cc2c(cc1OC)-c1c(C#N)c(-c3ccccc3)c(C)n1CC2
output: 189

input: State IC50 on Potassium channel subfamily K member 9 (Homo sapiens, UniProt Q9NPC2). Entry: CCOC(=O)c1c(-c2cccc(N)c2)c(C)n2c1-c1cc(OC)c(OC)cc1CC2
output: 268

====

# test-target: Potassium channel subfamily K member 3 (Homo sapiens, UniProt O14649)
# Sequence (O14649 whole entry): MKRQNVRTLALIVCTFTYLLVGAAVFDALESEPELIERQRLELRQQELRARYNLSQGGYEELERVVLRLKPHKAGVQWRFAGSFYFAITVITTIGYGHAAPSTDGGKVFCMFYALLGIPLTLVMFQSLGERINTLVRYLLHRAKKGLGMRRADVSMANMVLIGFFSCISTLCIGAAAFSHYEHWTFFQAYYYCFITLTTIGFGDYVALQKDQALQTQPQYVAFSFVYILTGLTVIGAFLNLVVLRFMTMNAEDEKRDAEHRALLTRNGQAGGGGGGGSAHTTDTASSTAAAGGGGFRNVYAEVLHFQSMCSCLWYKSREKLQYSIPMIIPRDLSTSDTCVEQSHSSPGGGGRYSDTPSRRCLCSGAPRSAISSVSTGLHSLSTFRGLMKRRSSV
# assay-summary: Inhibition of human TASK1 expressed in African green monkey COS cells by whole cell patch clamp assay
# Format: cell-based
value-kind: IC50 (nM)
Please state the figure in nM; there is no need to write the unit.

input: Check the records and state IC50 for CCCCC/C=C\C/C=C\C/C=C\C/C=C\CCCC(=O)N[C@H](C)CO [METHANANDAMIDE]
output: 100

====

# test-target: Potassium channel subfamily K member 9 (Homo sapiens, UniProt Q9NPC2)
# assay-summary: Inhibition of human TASK3 expressed in CHO cells by Inside-out macro-patches based electrophysiology assay
# Assay type: cell-based
value-kind: pIC50
# pIC50 is unitless: minus log10 of the molar concentration; print number only

input: Check the records and state pIC50 for COc1ccc(CC(=O)NCc2ccccc2-c2ccccc2C(=O)NCc2ccc(F)cc2F)cc1
output: 7.15

====

# test-target: Potassium channel subfamily K member 9 (Rattus norvegicus, UniProt Q9ES08)
# Sequence (Q9ES08 whole entry): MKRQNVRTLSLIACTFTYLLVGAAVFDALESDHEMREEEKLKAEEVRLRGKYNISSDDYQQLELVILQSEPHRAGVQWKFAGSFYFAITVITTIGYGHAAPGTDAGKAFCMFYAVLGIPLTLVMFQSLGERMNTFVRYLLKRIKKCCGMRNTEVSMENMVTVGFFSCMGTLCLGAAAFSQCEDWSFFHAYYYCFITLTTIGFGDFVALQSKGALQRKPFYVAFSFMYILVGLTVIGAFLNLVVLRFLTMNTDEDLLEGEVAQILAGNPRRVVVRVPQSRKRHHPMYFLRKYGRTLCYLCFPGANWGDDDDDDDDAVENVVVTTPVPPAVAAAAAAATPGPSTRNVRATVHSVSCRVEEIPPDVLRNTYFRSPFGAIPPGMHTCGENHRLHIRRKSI
# assay-summary: Inhibition of rat TASK3 expressed in African green monkey COS7 cells by outside-out patches based electrophysiology assay
# Type: cell-based
value-kind: pIC50
# pIC50 is unitless: minus log10 of the molar concentration; print number only

input: Check the records and state pIC50 for CCCCN1CCCCC1C(=O)Nc1c(C)cccc1C (stereo unspecified)
output: 4.00

====

# test-target: Potassium channel subfamily K member 3 (Homo sapiens, UniProt O14649)
# assay-summary: Inhibition of human TASK1 expressed in African green monkey COS7 cells by whole cell patch clamp assay
# Format: cell-based
value-kind: IC50 (µM)
Please state the figure in µM; there is no need to write the unit.

input: Check the records and state IC50 for CCCCC/C=C\C/C=C\C/C=C\C/C=C\CCCC(=O)NCCO [ANANDAMIDE]
output: 3

====

# test-target: UniProt O14649
# assay-summary: Inhibition of human TASK1 expressed in Xenopus oocytes by whole cell voltage clamp assay
# Format: cell-based
value-kind: pIC50
# pIC50 is unitless: minus log10 of the molar concentration; print number only

input: Check the records and state pIC50 for CCCCN1CCCCC1C(=O)Nc1c(C)cccc1C (stereo not given)
output: 4.39

input: Check the records and state pIC50 for Cc1cccc(C)c1NC(=O)C1CCCCN1C (stereo not given) [MEPIVACAINE]
output: 3.15

input: Check the records and state pIC50 for COc1ccc(-n2nc(Sc3ccc(C)cc3)c(C)c(C#N)c2=O)cc1
output: 6.46

input: Check the records and state pIC50 for CCCCS(=O)(=O)Nc1ccccc1C(=O)NC(CC)c1ccc(OC)nc1 (stereo not given)
output: 6.65

input: Check the records and state pIC50 for CCOC(=O)c1cc(C)n2c1-c1cc(OC)c(OC)cc1CC2
output: 4.08

input: Check the records and state pIC50 for CCCN1CCCC[C@H]1C(=O)Nc1c(C)cccc1C
output: 4.28

input: Check the records and state pIC50 for CCCCNc1ccc(C(=O)OCCN(C)C)cc1
output: 3.18

input: Check the records and state pIC50 for CCCN(CC)C(CC)C(=O)Nc1c(C)cccc1C (stereo not given)
output: 4.41

input: Check the records and state pIC50 for CCN(CC)CC(=O)Nc1c(C)cccc1C
output: 3.65

input: Check the records and state pIC50 for COc1ccc(CC(=O)NCc2ccccc2-c2ccccc2C(=O)NCCc2cccnc2)cc1
output: 6.22

input: Check the records and state pIC50 for CCc1ccc(S(=O)(=O)NC2c3cc(NC(=O)c4cccc(OC)c4)ccc3CC2O)cc1 (stereo not given)
output: 5.98

input: Check the records and state pIC50 for CCCN1CCCC[C@@H]1C(=O)Nc1c(C)cccc1C
output: 4.29

input: Check the records and state pIC50 for O=C(NCc1ccccc1-c1ccccc1C(=O)NCCc1ccccn1)OCc1ccccc1
output: 6.70

input: Check the records and state pIC50 for CCOC(=O)c1c(-c2cccs2)c(C)n2c1-c1cc(OC)c(OC)cc1CC2
output: 4.01

input: Check the records and state pIC50 for COc1ccc(CC(=O)NCc2ccccc2-c2ccccc2C(=O)NCc2ccc(F)cc2F)cc1
output: 7.46

====

# test-target: UniProtKB O54912
# Sequence (O54912 whole entry): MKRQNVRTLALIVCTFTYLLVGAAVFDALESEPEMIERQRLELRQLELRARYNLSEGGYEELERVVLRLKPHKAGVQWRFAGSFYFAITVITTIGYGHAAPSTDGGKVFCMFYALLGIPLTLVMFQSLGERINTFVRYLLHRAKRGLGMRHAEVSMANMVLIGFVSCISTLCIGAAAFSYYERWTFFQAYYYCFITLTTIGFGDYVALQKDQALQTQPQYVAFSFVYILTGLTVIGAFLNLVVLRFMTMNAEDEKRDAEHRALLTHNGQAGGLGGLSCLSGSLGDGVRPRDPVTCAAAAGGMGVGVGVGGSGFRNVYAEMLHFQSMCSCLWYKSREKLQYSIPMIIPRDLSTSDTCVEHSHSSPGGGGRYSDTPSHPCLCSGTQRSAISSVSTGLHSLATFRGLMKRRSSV
# assay-summary: Inhibition of rat TASK1 expressed in Xenopus oocytes by whole cell voltage clamp assay
# Format: cell-based
value-kind: IC50

input: Check the records and state IC50 for CCN1CC(CCN2CCOCC2)C(c2ccccc2)(c2ccccc2)C1=O (stereo unspecified) [DOXAPRAM]
output: 410 nM
